# Test system: RAW264.7
# assayDetails: Inhibition of LPS induced NO production in mouse RAW264.7 cells measured after 24 hrs by Griess reagent based assay
# Assay type: functional, cell-based
# statedConditions: RAW264.7, 24 h
property: IC50 (µM)

P = C=C1C(=O)O[C@@H]2[C@H]3C(C)=CC(=O)[C@@H]3[C@@H](C)C[C@H](OC(=O)/C(C)=C\C)[C@@H]12
Q = COc1ccc(-c2cc(=O)c3c(O)cc(O)cc3o2)cc1
R = O=c1cc(-c2ccc(O)cc2)oc2cc(O[C@@H]3O[C@H](CO)[C@@H](O)[C@H](O)[C@H]3O)cc(O)c12
S = C=C1C(=O)O[C@@H]2/C=C(\C)CC/C=C(\C)C[C@H](OC(=O)/C(C)=C\C)[C@@H]12
stdin: Ranking criterion: IC50, increasing numeric value. Items: as listed above. Answer by listing the labels in the requested order.
stdout: Q, S, P, R

1 = COc1ccc(-c2cc(=O)c3c(O)cc(O[C@@H]4O[C@H](CO)[C@@H](O)[C@H](O)[C@H]4O)cc3o2)cc1
2 = C=C[C@](C)(CCC/C(C)=C\C(=O)C=C(C)C)O[C@@H]1O[C@H](CO)[C@@H](O)[C@H](O)[C@H]1O
3 = O=c1cc(-c2ccc(O)cc2)oc2cc(O)cc(O)c12
4 = C=C1C(=O)O[C@H]2[C@H]1[C@@H](OC(=O)/C(C)=C\C)CC(C)=C1C[C@@H]3O[C@]3(C)[C@@H]12
stdin: In this exercise, place the 4 compounds in ascending sequence of their recorded IC50. Put the labels in the requested order and list them out.
stdout: 4, 3, 1, 2

---

As shown below, each of these molecules has a reported CC50 at 24 h value.
# assayDetails: Cytotoxicity against mouse RAW264.7 cells assessed as reduction in cell viability measured after 24 hrs by MTT assay
# Type: cell-based
Field: numeric (µM). Do not append units.

C=C1C(=O)O[C@H]2[C@H]1[C@@H](OC(=O)C(C)CC)CC(C)=C1C[C@@H]3O[C@]3(C)[C@@H]12 (some centres undefined): 21.5

stdin: Could you share which CC50 at 24 h value was measured for C=C1C(=O)O[C@@H]2[C@H]3C(C)=CC(=O)[C@H]3[C@@H](C)C[C@H](OC(=O)/C(C)=C\C)[C@@H]12 ?
stdout: 22.5

---

# assayDetails: Cytotoxicity against mouse RAW264.7 cells assessed as reduction in cell viability measured after 24 hrs by MTT assay
# Assay type: cell-based
property: CC50 at 24 h

Recorded CC50 at 24 h, per entry:
O=c1cc(-c2ccc(O)c(O)c2)oc2cc(O[C@@H]3O[C@H](CO)[C@@H](O)[C@H](O)[C@H]3O)cc(O)c12: > 100 µM
O=C(O)[C@H]1O[C@@H](Oc2cc(O)c3c(=O)cc(-c4ccc(O)c(O)c4)oc3c2)[C@H](O)[C@@H](O)[C@@H]1O: > 100 µM
C=C1C(=O)O[C@H]2[C@H]1[C@@H](OC(=O)/C(C)=C\C)CC(C)=C1C[C@@H]3O[C@]3(C)[C@@H]12: 21.7 µM
CC1=CC[C@H](C(C)(C)O)CC1=O: 98 µM
C[C@@H]1O[C@@H](OC[C@H]2O[C@@H](Oc3cc(O)c4c(=O)cc(-c5ccc(O)c(O)c5)oc4c3)[C@H](O)[C@@H](O)[C@@H]2O)[C@H](O)[C@H](O)[C@H]1O: > 100 µM

stdin: Quick one: CC50 at 24 h for C=C1C(=O)O[C@@H]2/C=C(\C)CC/C=C(\C)C[C@H](OC(=O)/C(C)=C\C)[C@@H]12 ?
stdout: 27 µM

stdin: # repeat for CC1(C)C[C@H](O)C[C@@]2(C)OC(=O)C=C12 [LOLIOLIDE]
stdout: > 100 µM

stdin: Entry to check: CC1=CC[C@H]([C@](C)(O)C/C=C/C(C)(C)O)CC1=O
stdout: > 100 µM

stdin: # iterate: C=C1C(=O)O[C@@H]2[C@H]3C(C)=CC(=O)[C@@H]3[C@@H](C)C[C@H](OC(=O)/C(C)=C\C)[C@@H]12
stdout: > 100 µM

stdin: Same thing, different molecule: O=c1cc(-c2ccc(O)cc2)oc2cc(O[C@@H]3O[C@H](CO)[C@@H](O)[C@H](O)[C@H]3O)cc(O)c12
stdout: > 100 µM

stdin: Can you handle C=C[C@](C)(CCC/C(C)=C\C(=O)C=C(C)C)O[C@@H]1O[C@H](CO)[C@@H](O)[C@H](O)[C@H]1O next?
stdout: > 100 µM

---

# Test system: RAW264.7
# assayDetails: Inhibition of LPS induced NO production in mouse RAW264.7 cells measured after 24 hrs by Griess reagent based assay
# Type: functional, cell-based
# statedConditions: RAW264.7, 24 h
property: IC50 (µM)

O=c1cc(-c2ccc(O)c(O)c2)oc2cc(O[C@@H]3O[C@H](CO)[C@@H](O)[C@H](O)[C@H]3O)cc(O)c12 [GALUTEOLIN]: 87.5

I = COc1ccc(-c2cc(=O)c3c(O)cc(O[C@@H]4O[C@H](C(=O)O)[C@@H](O)[C@H](O)[C@H]4O)cc3o2)cc1
II = CC1(C)C[C@H](O)C[C@@]2(C)OC(=O)C=C12 [LOLIOLIDE]
stdin: Which of the two items, I and II , has the greater recorded IC50? Identify your pick by its label.
stdout: I
(I: 92.4 µM, II: 56.7 µM)

---

# Test system: RAW264.7
# assayDetails: Inhibition of LPS induced NO production in mouse RAW264.7 cells measured after 24 hrs by Griess reagent based assay
# Type: functional, cell-based
# statedConditions: RAW264.7, 24 h
pIC50: −log10 of the molar value.
property: pIC50

Some compounds with recorded pIC50:
COc1ccc([C@@H]2CC(=O)c3c(O)cc(O)cc3O2)cc1O: 4.51
COc1ccc(-c2cc(=O)c3c(O)cc(O)cc3o2)cc1O: 4.46
CC(=O)/C=C/[C@]1(O)C(C)(C)C[C@H](O)C[C@@]1(C)O: 4.52
CC1=CC[C@H](C(C)(C)O)CC1=O: 4.31

a = C=C[C@@](C)(O)C[C@H](O)/C=C(\C)CC(=O)C=C(C)C
b = C=C1C(=O)O[C@H]2[C@H]1[C@@H](OC(=O)C(C)CC)CC(C)=C1C[C@@H]3O[C@]3(C)[C@@H]12 (stereo not given in full)
c = C=C1C(=O)O[C@@H]2[C@H]3C(C)=CC(=O)[C@H]3[C@@H](C)C[C@H](OC(=O)/C(C)=C\C)[C@@H]12
stdin: Highest pIC50 first, then in falling order down to the smallest. API: response body holds the labels in the requested order.
stdout: c, b, a

---

# assayDetails: Cytotoxicity against mouse RAW264.7 cells assessed as reduction in cell viability measured after 24 hrs by MTT assay
# Type: cell-based
CC50 at 24 h values, listed per item

Example cases with answers are listed next.
C=C(C)C(O)CC[C@@](C)(O)[C@H]1CC=C(C)C(=O)C1 (stereo partly drawn): > 100 µM
O=C(O)[C@H]1O[C@@H](Oc2cc(O)c3c(=O)cc(-c4ccc(O)cc4)oc3c2)[C@H](O)[C@@H](O)[C@@H]1O: > 100 µM

stdin: Tell me the measured CC50 at 24 h of COc1ccc(-c2cc(=O)c3c(O)cc(O)cc3o2)cc1 [ACACETIN] , please.
stdout: 60.9 µM

---

# System: RAW264.7
# assayDetails: Inhibition of LPS induced NO production in mouse RAW264.7 cells measured after 24 hrs by Griess reagent based assay
# Format: functional, cell-based
# statedConditions: RAW264.7, 24 h
Recorded IC50, one value per entry.

C=C[C@](C)(CC/C=C(\C)CC(=O)CC(C)C)O[C@@H]1O[C@H](CO)[C@@H](O)[C@H](O)[C@H]1O: > 100 µM
C=C(C)C(O)CC[C@@](C)(O)[C@H]1CC=C(C)C(=O)C1 (stereo partly drawn): > 100 µM
CC1=CC[C@H]([C@](C)(O)C/C=C/C(C)(C)O)CC1=O: > 100 µM
C[C@@H]1O[C@@H](OC[C@H]2O[C@@H](Oc3cc(O)c4c(=O)cc(-c5ccc(O)c(O)c5)oc4c3)[C@H](O)[C@@H](O)[C@@H]2O)[C@H](O)[C@H](O)[C@H]1O: > 100 µM
C=C[C@](C)(CC/C=C(\C)CC(=O)C=C(C)C)O[C@@H]1O[C@H](CO)[C@@H](O)[C@H](O)[C@H]1O: > 100 µM

stdin: Requested field: IC50. Item: C=C[C@](C)(CCC/C(C)=C/C(=O)C=C(C)C)O[C@@H]1O[C@H](CO)[C@@H](O)[C@H](O)[C@H]1O
stdout: > 100 µM

stdin: Same again, this time with COc1ccc(-c2cc(=O)c3c(O)cc(O[C@@H]4O[C@H](CO[C@@H]5O[C@@H](C)[C@H](O)[C@@H](O)[C@H]5O)[C@@H](O)[C@H](O)[C@H]4O)cc3o2)cc1
stdout: > 100 µM

stdin: Then this compound: O=C(O)[C@H]1O[C@@H](Oc2cc(O)c3c(=O)cc(-c4ccc(O)cc4)oc3c2)[C@H](O)[C@@H](O)[C@@H]1O
stdout: > 100 µM
